experimentalSystem: human GPR40 receptor (Homo sapiens, UniProt O14842)
Sequence (O14842 whole entry): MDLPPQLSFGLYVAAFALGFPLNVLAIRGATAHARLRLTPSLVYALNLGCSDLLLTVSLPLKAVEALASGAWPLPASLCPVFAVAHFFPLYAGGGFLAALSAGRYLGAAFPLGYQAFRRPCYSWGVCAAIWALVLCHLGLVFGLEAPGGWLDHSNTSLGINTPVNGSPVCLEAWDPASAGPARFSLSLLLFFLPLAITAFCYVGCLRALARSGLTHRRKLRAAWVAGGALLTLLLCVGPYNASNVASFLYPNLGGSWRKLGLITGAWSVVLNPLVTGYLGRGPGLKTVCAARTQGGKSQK
runDescription: Assay II: IP1 accumulation (IPOne HTRF) in 1321N1 cells stably expressing human GPR40
Assay type: cell-based
conditionDetails: 1321N1 cells expressing human GPR40, stimulation 1 h at 37° C., 5% CO2, LiCl 50 mM
parameter: pEC50
API: returns pEC50 as number; meaning -log10 of concentration in mol/L.

Consider the reported pEC50 for these molecules:
Cc1cc(O[C@@H]2CCCN(S(C)(=O)=O)C2)cc(C)c1-c1ccc(F)c2c1CC[C@H]2Oc1ccc2c(c1)OC[C@H]2CC(=O)O [Example 49] | 8.00
Cc1cc(-c2cnn(C)c(=O)c2)cc(C)c1-c1ccc(F)c2c1CC[C@H]2Oc1ccc2c(c1)OC[C@H]2CC(=O)O [Example 92] | 8.30

Now examine the next entry.
Incoming: Tell me the measured pEC50 of Cc1cc(OCC2(O)CCOCC2)cc(C)c1-c1ccc(F)c2c1CC[C@H]2Oc1ccc2c(c1)OC[C@H]2CC(=O)O [Example 66] , please.
Outgoing: 8.30
